- assay_remarks: Effect of ganglioside treatment on chronic Vincristine toxicity (lethality after sub-chronic pre-treatment or post-treatment)
- Assay type: in vivo, mouse
- assay_setup: mouse, in vivo, iv; Table 4; subchronic vehicle + VCR 2.6 mg/kg i.v.; read-out: Mortality rate, %
measurement_type: mortality at 336 h

* CC[C@]1(O)C[C@H]2CN(CCc3c([nH]c4ccccc34)[C@@](C(=O)OC)(c3cc4c(cc3OC)N(C=O)[C@H]3[C@@](O)(C(=O)OC)[C@H](OC(C)=O)[C@]5(CC)C=CCN6CC[C@]43[C@@H]65)C2)C1 | 60%
